For each record, write down the corresponding MIC.
Test system: MRSA ATCC 43300
Assay: Antimicrobial MIC, MRSA (CO-ADD)
Type: cell-based, methicillin-resistant S. aureus
Settings: Staphylococcus aureus; MRSA ATCC 43300; mean (n = 2); read-out: MIC MRSA

Example cases with answers are listed next.
MOLECULE: COc1ccc(/C=C/C(=O)NCCCNCCCCCCNCCCNC(=O)/C=C/c2ccc(OC)c(Br)c2)cc1Br.O=C(O)C(F)(F)F.O=C(O)C(F)(F)F [Compound 15b]
PROPERTY MEASURED: MIC
TEST RESULT: 2.1 µM
--
MOLECULE: COc1c(Br)cc(/C=C/C(=O)NCCCNCCCCCCCNCCCNC(=O)/C=C/c2cc(Br)c(OC)c(Br)c2)cc1Br.O=C(O)C(F)(F)F.O=C(O)C(F)(F)F [Compound 16c]
PROPERTY MEASURED: MIC
TEST RESULT: ≤ 0.23 µM
--
MOLECULE: COc1ccc(/C=C/C(=O)NCCCNCCCCNCCCNC(=O)/C=C/c2ccc(OC)c(Br)c2)cc1Br.O=C(O)C(F)(F)F.O=C(O)C(F)(F)F [Compound 15a]
PROPERTY MEASURED: MIC
TEST RESULT: 2.2 µM
--
MOLECULE: COc1ccc(/C=C/C(=O)NCCCNCCCCCCCCCCNCCCNC(=O)/C=C/c2ccc(OC)cc2)cc1.O=C(O)C(F)(F)F.O=C(O)C(F)(F)F [Compound 14e]
PROPERTY MEASURED: MIC
TEST RESULT: ≤ 0.3 µM
--
MOLECULE: COc1ccc(/C=C/C(=O)NCCCNCCCCCCNCCCNC(=O)/C=C/c2ccc(OC)cc2)cc1.O=C(O)C(F)(F)F.O=C(O)C(F)(F)F [Compound 14b]
PROPERTY MEASURED: MIC
TEST RESULT: 41.1 µM

Parameters: items (list). Returns: MIC for each item.
1. O=C(C=Cc1ccccc1)NCCCNCCCCCCCNCCCNC(=O)C=Cc1ccccc1.O=C(O)C(F)(F)F.O=C(O)C(F)(F)F [Compound 13c]
2. COc1ccc(/C=C/C(=O)NCCCNCCCCCCCCCCNCCCNC(=O)/C=C/c2ccc(OC)c(Br)c2)cc1Br.O=C(O)C(F)(F)F.O=C(O)C(F)(F)F [Compound 15e]
3. O=C(C=Cc1ccccc1)NCCCNCCCCNCCCNC(=O)C=Cc1ccccc1.O=C(O)C(F)(F)F.O=C(O)C(F)(F)F [Compound 13a]
4. COc1ccc(/C=C/C(=O)NCCCNCCCCCCCCCCCCNCCCNC(=O)/C=C/c2ccc(OC)c(Br)c2)cc1Br.O=C(O)C(F)(F)F.O=C(O)C(F)(F)F [Compound 15f]
5. O=C(C=Cc1ccccc1)NCCCNCCCCCCNCCCNC(=O)C=Cc1ccccc1.O=C(O)C(F)(F)F.O=C(O)C(F)(F)F [Compound 13b]
6. COc1ccc(/C=C/C(=O)NCCCNCCCCCCCCNCCCNC(=O)/C=C/c2ccc(OC)cc2)cc1.O=C(O)C(F)(F)F.O=C(O)C(F)(F)F [Compound 14d]
7. COc1ccc(/C=C/C(=O)NCCCNCCCCCCCCNCCCNC(=O)/C=C/c2ccc(OC)c(Br)c2)cc1Br.O=C(O)C(F)(F)F.O=C(O)C(F)(F)F [Compound 15d]

Response:
1. > 43.7 µM
2. ≤ 0.25 µM
3. > 46.3 µM
4. ≤ 0.24 µM
5. > 44.5 µM
6. ≤ 0.31 µM
7. ≤ 0.26 µM

Parameters: items (list). Returns: MIC for each item.
1. COc1c(Br)cc(/C=C/C(=O)NCCCNCCCCCCCCCCNCCCNC(=O)/C=C/c2cc(Br)c(OC)c(Br)c2)cc1Br.O=C(O)C(F)(F)F.O=C(O)C(F)(F)F [Compound 16e]
2. COc1c(Br)cc(/C=C/C(=O)NCCCNCCCCCCNCCCNC(=O)/C=C/c2cc(Br)c(OC)c(Br)c2)cc1Br.O=C(O)C(F)(F)F.O=C(O)C(F)(F)F [Compound 16b]
3. COc1ccc(/C=C/C(=O)NCCCNCCCCCCCNCCCNC(=O)/C=C/c2ccc(OC)c(Br)c2)cc1Br.O=C(O)C(F)(F)F.O=C(O)C(F)(F)F [Compound 15c]
4. O=C(C=Cc1ccccc1)NCCCNCCCCCCCCCCCCNCCCNC(=O)C=Cc1ccccc1.O=C(O)C(F)(F)F.O=C(O)C(F)(F)F [Compound 13f]

Response:
1. ≤ 0.22 µM
2. ≤ 0.23 µM
3. ≤ 0.26 µM
4. ≤ 0.31 µM
